# inhibition at 1000 µM listing for each entry below
Molecular target: α-Glucosidase (Yeast) (Saccharomyces cerevisiae, UniProt P53341)
Sequence (P53341 whole entry): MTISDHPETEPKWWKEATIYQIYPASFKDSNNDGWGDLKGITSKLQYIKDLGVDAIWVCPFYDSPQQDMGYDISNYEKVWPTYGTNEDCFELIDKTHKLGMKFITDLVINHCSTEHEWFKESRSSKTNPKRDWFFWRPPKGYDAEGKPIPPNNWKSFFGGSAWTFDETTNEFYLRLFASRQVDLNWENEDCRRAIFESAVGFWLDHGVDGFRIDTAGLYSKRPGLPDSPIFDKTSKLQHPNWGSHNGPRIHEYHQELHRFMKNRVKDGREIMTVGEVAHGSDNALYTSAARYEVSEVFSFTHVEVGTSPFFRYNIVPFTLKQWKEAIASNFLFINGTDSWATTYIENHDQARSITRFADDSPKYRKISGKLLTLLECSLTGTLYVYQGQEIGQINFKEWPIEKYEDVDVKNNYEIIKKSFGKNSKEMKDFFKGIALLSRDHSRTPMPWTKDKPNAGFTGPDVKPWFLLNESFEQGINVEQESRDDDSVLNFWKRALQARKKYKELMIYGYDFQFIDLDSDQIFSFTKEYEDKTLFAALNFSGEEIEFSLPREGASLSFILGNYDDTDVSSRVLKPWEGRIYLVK
Assay: α-Glucosidase (yeast) inhibition
Assay type: biochemical
Details: α-Glucosidase, Yeast; read-out: IC50
RECORDED ENDPOINT: inhibition at 1000 µM

CC(=O)NC[C@H]1N[C@@H](CO)[C@H](O)[C@@H]1O
< 50%
CC(=O)NC[C@H]1N[C@@H](CO)[C@@H](O)[C@@H]1O [E-10a]
< 50%
CC(=O)NC[C@H]1N[C@H](CO)[C@H](O)[C@@H]1O
< 50%
CC(=O)NC[C@H]1N[C@H](CO)[C@H](O)[C@H]1O [F-10b]
< 50%
CC(=O)NC[C@@H]1N[C@@H](CO)[C@H](O)[C@H]1O
< 50%

----------
# inhibition at 1000 µM listing for each entry below
Target: α-Glucosidase (Yeast) (Saccharomyces cerevisiae, UniProt P53341)
Assay: α-Glucosidase (yeast) inhibition
Assay type: biochemical
Conditions: α-Glucosidase, Yeast; read-out: IC50
RECORDED ENDPOINT: inhibition at 1000 µM

CC(=O)NC[C@@H]1N[C@H](CO)[C@@H](O)[C@H]1O
< 50%
CC(=O)NC[C@@H]1N[C@@H](CO)[C@@H](O)[C@@H]1O [E-10b]
< 50%
CC(=O)NC[C@@H]1N[C@@H](CO)[C@@H](O)[C@H]1O
< 50%

----------
Test system: β-Glucosidase (Bovine liver)
Assay: β-Glucosidase (bovine liver) inhibition
Type: biochemical
Settings: 1000 μM
Counter-ions that a name gives are not always drawn.
RECORDED ENDPOINT: Inhibition % at 1000 μM (%)

CC(=O)NC[C@@H]1N[C@H](CO)[C@H](O)[C@H]1O [F-10a]
0.3
CC(=O)NC[C@H]1N[C@H](CO)[C@@H](O)[C@@H]1O [4·HCl]
33.8
CC(=O)NC[C@@H]1N[C@H](CO)[C@@H](O)[C@H]1O [H-10]
1.7
CC(=O)NC[C@H]1N[C@@H](CO)[C@H](O)[C@@H]1O [G-10]
0
CC(=O)NC[C@H]1N[C@@H](CO)[C@@H](O)[C@@H]1O [E-10a]
4.1
CC(=O)NC[C@@H]1N[C@@H](CO)[C@@H](O)[C@@H]1O [E-10b]
0
CC(=O)NC[C@@H]1N[C@@H](CO)[C@@H](O)[C@H]1O [C-10]
1.0
CC(=O)NC[C@H]1N[C@H](CO)[C@H](O)[C@H]1O [F-10b]
0
CC(=O)NC[C@@H]1N[C@@H](CO)[C@H](O)[C@H]1O [A-10]
2.0

----------
Test system: β-N-Acetylgalactosaminidase (HL60)
Assay: β-N-Acetylgalactosaminidase (HL60) inhibition
Assay type: biochemical
Details: 1000 μM
Criterion: Inhibition % at 1000 μM meeting or surpassing 10%. Met: True. Not met: False.

CC(=O)NC[C@@H]1N[C@@H](CO)[C@H](O)[C@H]1O [A-10]
True
CC(=O)NC[C@H]1N[C@H](CO)[C@H](O)[C@H]1O [F-10b]
True
CC(=O)NC[C@@H]1N[C@H](CO)[C@@H](O)[C@H]1O [H-10]
False
CC(=O)NC[C@H]1N[C@@H](CO)[C@H](O)[C@@H]1O [G-10]
True
CC(=O)NC[C@@H]1N[C@@H](CO)[C@@H](O)[C@H]1O [C-10]
False
CC(=O)NC[C@@H]1N[C@H](CO)[C@H](O)[C@H]1O [F-10a]
False

----------
Target: α,α-Trehalase (Porcine kidney) (Sus scrofa, UniProt I3LIR5)
Construct: purchased Sigma-Aldrich Chemical Co; host or cells: porcine kidney
Sequence (I3LIR5 24-583): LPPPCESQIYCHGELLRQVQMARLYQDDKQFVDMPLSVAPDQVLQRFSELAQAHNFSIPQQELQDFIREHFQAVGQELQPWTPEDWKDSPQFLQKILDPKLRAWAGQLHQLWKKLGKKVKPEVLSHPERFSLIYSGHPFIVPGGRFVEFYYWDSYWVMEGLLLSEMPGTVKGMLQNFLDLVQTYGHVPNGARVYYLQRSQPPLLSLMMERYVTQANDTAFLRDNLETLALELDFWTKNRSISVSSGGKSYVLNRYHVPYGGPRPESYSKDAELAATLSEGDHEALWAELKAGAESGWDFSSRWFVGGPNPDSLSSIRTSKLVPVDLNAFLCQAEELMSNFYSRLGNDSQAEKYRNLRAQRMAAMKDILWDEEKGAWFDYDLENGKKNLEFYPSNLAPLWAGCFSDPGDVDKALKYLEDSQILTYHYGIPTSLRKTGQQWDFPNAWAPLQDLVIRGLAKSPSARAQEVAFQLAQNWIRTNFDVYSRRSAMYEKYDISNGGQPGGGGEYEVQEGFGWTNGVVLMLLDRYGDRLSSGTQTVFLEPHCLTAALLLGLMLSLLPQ
Test: α,α-Trehalase (porcine kidney) inhibition
Type: biochemical
Settings: 1000 μM, read-out: Inhibition % at 1000 μM
Counter-ions that a name gives are not always drawn.
RECORDED ENDPOINT: inhibition at 1000 µM (%)

CC(=O)NC[C@H]1N[C@@H](CO)[C@@H](O)[C@@H]1O [E-10a]
5.6
CC(=O)NC[C@H]1N[C@H](CO)[C@H](O)[C@H]1O [F-10b]
0
CC(=O)NC[C@H]1N[C@@H](CO)[C@H](O)[C@@H]1O [G-10]
5.6
CC(=O)NC[C@H]1N[C@H](CO)[C@@H](O)[C@@H]1O [4·HCl]
20.3
CC(=O)NC[C@@H]1N[C@@H](CO)[C@@H](O)[C@H]1O [C-10]
0

----------
Test system: β-Glucosidase (Almond)
Assay: β-Glucosidase (almond) inhibition
Type: biochemical
Details: 1000 μM
RECORDED ENDPOINT: Inhibition % at 1000 μM (%)

CC(=O)NC[C@@H]1N[C@H](CO)[C@@H](O)[C@H]1O
17.1
CC(=O)NC[C@H]1N[C@@H](CO)[C@H](O)[C@@H]1O
15.3
CC(=O)NC[C@@H]1N[C@H](CO)[C@H](O)[C@H]1O [F-10a]
11.6
CC(=O)NC[C@@H]1N[C@@H](CO)[C@@H](O)[C@@H]1O [E-10b]
1.2
CC(=O)NC[C@@H]1N[C@@H](CO)[C@H](O)[C@H]1O
16.1

----------
Tested on: α-L-Rhamnosidase (P. decumbens)
Assay: α-L-Rhamnosidase (P. decumbens) inhibition
Format: biochemical
Conditions: 1000 μM
Structures can show the parent of a compound that is named as a salt.
RECORDED ENDPOINT: Inhibition % at 1000 μM (%)

CC(=O)NC[C@@H]1N[C@@H](CO)[C@@H](O)[C@@H]1O [E-10b]
30.8
CC(=O)NC[C@H]1N[C@H](CO)[C@H](O)[C@@H]1O [D-10]
8.3
CC(=O)NC[C@@H]1N[C@H](CO)[C@@H](O)[C@H]1O [H-10]
7.7
CC(=O)NC[C@H]1N[C@H](CO)[C@@H](O)[C@@H]1O [4·HCl]
6.5
CC(=O)NC[C@H]1N[C@@H](CO)[C@H](O)[C@@H]1O [G-10]
9.5
CC(=O)NC[C@H]1N[C@H](CO)[C@H](O)[C@H]1O [F-10b]
3.0
CC(=O)NC[C@H]1N[C@@H](CO)[C@@H](O)[C@@H]1O [E-10a]
11.8
CC(=O)NC[C@@H]1N[C@H](CO)[C@H](O)[C@H]1O [F-10a]
5.3
CC(=O)NC[C@@H]1N[C@@H](CO)[C@H](O)[C@H]1O [A-10]
10.1
CC(=O)NC[C@@H]1N[C@@H](CO)[C@@H](O)[C@H]1O [C-10]
3.6

----------
Biological target: α-Glucosidase (Rice) (Oryza sativa subsp. japonica, UniProt Q653V7)
Construct: purchased Sigma-Aldrich Chemical Co
Sequence (Q653V7 34-885): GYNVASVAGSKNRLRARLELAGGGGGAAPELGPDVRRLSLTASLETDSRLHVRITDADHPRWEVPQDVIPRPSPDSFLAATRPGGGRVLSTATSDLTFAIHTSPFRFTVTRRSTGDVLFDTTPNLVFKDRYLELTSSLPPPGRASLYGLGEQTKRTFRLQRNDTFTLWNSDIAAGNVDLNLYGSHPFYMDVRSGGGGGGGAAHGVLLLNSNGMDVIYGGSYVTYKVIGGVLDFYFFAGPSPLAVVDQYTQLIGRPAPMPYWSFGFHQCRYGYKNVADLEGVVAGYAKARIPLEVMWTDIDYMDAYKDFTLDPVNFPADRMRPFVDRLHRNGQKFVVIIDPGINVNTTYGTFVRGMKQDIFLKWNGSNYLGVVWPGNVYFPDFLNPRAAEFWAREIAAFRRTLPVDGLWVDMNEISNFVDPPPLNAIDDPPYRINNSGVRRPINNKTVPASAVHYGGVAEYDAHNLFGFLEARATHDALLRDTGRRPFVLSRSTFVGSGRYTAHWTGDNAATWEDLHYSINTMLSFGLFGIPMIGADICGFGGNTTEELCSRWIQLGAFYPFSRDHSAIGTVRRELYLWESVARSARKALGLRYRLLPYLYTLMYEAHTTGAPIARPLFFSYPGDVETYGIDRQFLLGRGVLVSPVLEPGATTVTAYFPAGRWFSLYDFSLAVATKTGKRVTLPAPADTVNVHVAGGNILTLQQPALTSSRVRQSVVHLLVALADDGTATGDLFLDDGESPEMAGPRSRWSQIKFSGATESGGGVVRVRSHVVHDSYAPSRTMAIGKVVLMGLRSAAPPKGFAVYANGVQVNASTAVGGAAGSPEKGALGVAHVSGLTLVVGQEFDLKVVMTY
Experiment: α-Glucosidase (rice) inhibition
Assay type: biochemical
Details: 1000 μM, read-out: Inhibition % at 1000 μM
RECORDED ENDPOINT: inhibition at 1000 µM (%)

CC(=O)NC[C@@H]1N[C@@H](CO)[C@@H](O)[C@H]1O
18.2
CC(=O)NC[C@H]1N[C@H](CO)[C@H](O)[C@H]1O [F-10b]
0
CC(=O)NC[C@@H]1N[C@H](CO)[C@H](O)[C@H]1O [F-10a]
12.5
CC(=O)NC[C@H]1N[C@@H](CO)[C@@H](O)[C@@H]1O [E-10a]
15.9
CC(=O)NC[C@H]1N[C@H](CO)[C@H](O)[C@@H]1O
26.1
CC(=O)NC[C@@H]1N[C@H](CO)[C@@H](O)[C@H]1O
5.6
CC(=O)NC[C@@H]1N[C@@H](CO)[C@@H](O)[C@@H]1O [E-10b]
0
CC(=O)NC[C@H]1N[C@@H](CO)[C@H](O)[C@@H]1O
0
